target system: Cytochrome P450 2C19 (Homo sapiens) (UniProt P33261)
Sequence (P33261 whole entry, looked up): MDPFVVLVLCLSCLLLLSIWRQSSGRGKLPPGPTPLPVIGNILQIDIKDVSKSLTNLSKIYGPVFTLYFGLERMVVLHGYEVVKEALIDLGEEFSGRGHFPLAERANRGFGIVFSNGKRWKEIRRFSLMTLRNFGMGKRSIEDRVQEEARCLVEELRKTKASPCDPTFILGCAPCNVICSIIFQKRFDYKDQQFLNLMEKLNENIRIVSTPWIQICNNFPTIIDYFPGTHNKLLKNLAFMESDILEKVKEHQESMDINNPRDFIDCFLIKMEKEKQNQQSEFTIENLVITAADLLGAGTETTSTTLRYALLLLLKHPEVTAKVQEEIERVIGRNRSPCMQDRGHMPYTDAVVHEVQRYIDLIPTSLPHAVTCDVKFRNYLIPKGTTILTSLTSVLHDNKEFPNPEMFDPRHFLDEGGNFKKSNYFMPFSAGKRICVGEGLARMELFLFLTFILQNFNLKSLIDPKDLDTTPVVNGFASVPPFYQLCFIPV
procedure summary: Cytochrome P450 Family 2 Subfamily C Member 19 (CYP2C19) small molecule antagonists: luciferase reporter qHTS assay (AID 1671197); further: potency means the concentration at half of the fitted maximal effect; nearly all actives have a fitted effect of over 65% in size
condition description: P450-Glo CYP2C19 enzyme, luciferin luminescence, 1 h; series mostly up to 115 µM
Inconclusive results are not listed. Calls of active or inactive are those of the source. The call rests on the fitted dose curve; in most records, active means well fitted inhibition curve with a large enough effect in the repeat runs; inconclusive means weak or mixed curves; inactive means no such curve, though single readings can be large or run the other way.
# key: entry, value: Potency

C#C[C@]1(OC(C)=O)CC[C@H]2[C@@H]3CCC4=C[C@@H](OC(C)=O)CC[C@@H]4[C@H]3CC[C@@]21C | 21.9 µM (active)
c1ccc(C(O[C@@H]2CCCN(CCc3ccc4c(c3)OCO4)C2)c2ccccc2)cc1 | 35.6 µM (active)
CC(=O)c1ccc(C(C)=O)cc1 | 64.8 µM (active)

Return Potency (reported value) for this molecule: CN(C)Cc1cc(C(C)(C)C)c(O)c(C(C)(C)C)c1 10 µM (active)

---

procedure summary: qHTS assay to identify small molecule antagonists of the thyroid receptor (TR) signaling pathway (AID 743065); further: nearly all actives have a fitted effect of over 55% in size
condition description: GH3.TRE-Luc, T3-stimulated luciferase inhibition, 23.5 h; series mostly up to 70.3 µM
From the text: U.S. Tox21 Program National Center for Advancing Translational Sciences [NCATS] NIH Chemical Genomics Center [NCGC] U.S. Environmental Protection Agency [EPA] National Institutes of Environmental Health Sciences [NIEHS] National Toxicology Program [NTP] U.S. Food and Drug Administration [FDA] Tox21 Assay Overview: Thyroid receptor (TR), a nuclear hormone receptor, plays an important role in development, proliferation, differentiation, metabolism, brain function, and cardiovascular system. […]
Results filed as inconclusive are left out. The source made the active and inactive calls. Calls follow the shape of the dose curve; as a rule, active = well fitted inhibition curve with a large enough effect in the repeat runs; inconclusive = weak or mixed curves; inactive = no such curve, though single readings can be large or run the other way.
Please state which outcome applies, choosing from true (active), false (inactive)

CC(=O)OCC=C(C)C | false
C1CCC(SSC2CCCCC2)CC1 | false

# lookup: test call for O=C1CCCCCCCCCCCCCCCO1 false

# lookup: test call for O=C(O)c1cc(N=Nc2ccc([N+](=O)[O-])cc2)ccc1O true

# lookup: test call for O=C(O)CCN(C1(C(=O)NO)CCCC1)S(=O)(=O)c1ccc(Oc2ccc(F)cc2)cc1 false

# lookup: test call for CC(C)(C)c1csc(-c2cc3cc(OCc4ccccc4CC(=O)O)ccc3o2)n1 true

# lookup: test call for CC(C)CCCCCOC(=O)CCS false

---

procedure summary: qHTS assay to identify small molecule HDAC inhibitors - cell viability counter screen (AID 1259365); further: nearly all actives have a fitted effect of over 50% in size
condition description: HCT-116 viability, CellTiter-Glo ATP luminescence, 2 h; series mostly up to 92.4 µM
Calls of active or inactive are those of the source. Calls come from the whole dose curve; as a rule, active = well fitted cell-killing curve with a large enough effect in the repeat runs; inconclusive = weak or mixed curves, or effect the other way; inactive = flat fitted curve, though single readings scatter.
Please state which outcome applies, choosing from T = active, F = inactive

Reference set, count: 5
O=C(O)c1cc(=O)c2ccccc2o1 | F
CCCCC(CC)COC(=O)CCCCC(=O)OCc1ccccc1 (stereo not given) | F
CC1(C)CC(O)CC(C)(C)N1 | F
COc1ccc2c(c1)c(CC(=O)OC/C=C(\C)CC/C=C(\C)CCC=C(C)C)c(C)n2C(=O)c1ccc(Cl)cc1 | F
C=Cc1ccccc1C=C | F

# lookup: test call for Cc1nc(-c2ccc(Cl)cc2)oc1COC(C)(C)C(=O)O F

# lookup: test call for CCCCCc1ccc(Cl)cc1 F

# lookup: test call for CCCC(=O)OC(C)(C)Cc1ccccc1 F

# lookup: test call for Oc1cc(Cl)cc(Cl)c1Cl F

# lookup: test call for CCCCCC(C)OC(=O)COc1ccc(Cl)c2cccnc12 (stereo not given) F

# lookup: test call for O=[N+]([O-])c1ccc(O)cc1C(F)(F)F F

# lookup: test call for O=C(O)c1cc(-c2ccc(F)cc2F)ccc1O F

# lookup: test call for COC(=O)C1=C(C)NC(C)=C(C(=O)OCCN2CCN(C(c3ccccc3)c3ccccc3)CC2)C1c1cccc([N+](=O)[O-])c1 (stereo not given) F

# lookup: test call for CCCCCCCCCCCCCCCC[N+](C)(C)CC F

# lookup: test call for CCC(CC)C(C)CCOC(C)=O (stereo not given) F

# lookup: test call for CC(=O)OCC=C(C)C F

# lookup: test call for Cc1cc(C)c(/C=C2\C(=O)Nc3ccccc32)[nH]1 F

# lookup: test call for COC(=O)c1ccccc1OC F

# lookup: test call for CCCC1CCC(=O)CC1 F

# lookup: test call for C#CC1(O)CC[C@H]2[C@@H]3CCC4=CCCC[C@@H]4[C@H]3CC[C@@]21C (stereo not given in full) T

---

target system: Cytochrome P450 3A4 (Homo sapiens)
procedure summary: Cytochrome P450 Family 3 Subfamily A Member 4 (CYP3A4) small molecule antagonists: luciferase reporter qHTS assay (AID 1671201); further: nearly all actives have a fitted effect of over 50% in size
condition description: P450-Glo CYP3A4 enzyme, luciferin luminescence, 1 h; series mostly up to 115 µM
Records with an inconclusive call do not appear. Calls of active or inactive are those of the source. Calls follow the shape of the dose curve; as a rule, active = well fitted inhibition curve with a large enough effect in the repeat runs; inconclusive = weak or mixed curves; inactive = no such curve, though single readings can be large or run the other way.
Please state which outcome applies, choosing from t = active, f = inactive

Reference set, count: 6
NC(=O)c1cccc([N+](=O)[O-])c1 | f
O=C(/C=C/c1ccccc1)OC/C=C/c1ccccc1 | f
Cc1cc(=O)oc2cc(O)cc(O)c12 | t
O=c1[nH]c2ccccc2n1CCCN1CCN(C(c2ccccc2)c2ccccc2)CC1 | f
C=CCn1c(=O)n(CC=C)c(=O)n(CC=C)c1=O | t
CC(C)CCCCCOC(=O)CCS | f

# lookup: test call for Cc1c(N)cccc1C(F)(F)F f

# lookup: test call for O=C(Oc1ccccc1)Oc1ccccc1 f

# lookup: test call for CC(C)CCOC(=O)/C=C/c1ccccc1 f

# lookup: test call for CC1=Nc2ccccc2C1(C)C t

# lookup: test call for CCOc1ccc2ccccc2c1C(=O)N[C@@H]1C(=O)N2[C@@H]1SC(C)(C)[C@@H]2C(=O)O f

---

procedure summary: A CellTox Green Cytotoxicity Assay to monitor cytotoxicity in HEK293 cells - 40 hour (AID 1224871); further: nearly all actives have a fitted effect of over 45% in size
condition description: CellTox Green fluorescence; series mostly up to 76.8 µM
Records with an inconclusive call do not appear. Activity calls are given as the source filed them. The call rests on the fitted dose curve; in most records, active means well fitted activation curve with a large enough effect in the repeat runs; inconclusive means weak or mixed curves; inactive means flat fitted curve, though single readings scatter.
Please state which outcome applies, choosing from active, inactive

C=CC(=O)OCCOC(=O)C=C | active
CC(C)NC[C@@H](O)COc1ccc(CC(N)=O)cc1 | inactive
Cc1cc(-c2ccc(N=Nc3cc(S(=O)(=O)O)c4ccccc4c3N)c(C)c2)ccc1N=Nc1cc(S(=O)(=O)O)c2ccccc2c1N | active

# lookup: test call for CC(C)(C)c1csc(-c2cc3cc(OCc4ccccc4CC(=O)O)ccc3o2)n1 active

---

procedure summary: A CellTox Green Cytotoxicity Assay to monitor cytotoxicity in HepG2 cells - 8 hour (AID 1224890); further: nearly all actives have a fitted effect of over 45% in size
condition description: CellTox Green fluorescence; series mostly up to 76.8 µM
Results filed as inconclusive are left out. Active and inactive are the calls of the source. Calls follow the shape of the dose curve; as a rule, active = well fitted activation curve with a large enough effect in the repeat runs; inconclusive = weak or mixed curves; inactive = flat fitted curve, though single readings scatter.
Please state which outcome applies, choosing from 1 (yes) for active, 0 (no) for inactive

# lookup: test call for C#C[C@]1(OC(C)=O)CC[C@H]2[C@@H]3CCC4=C/C(=N/O)CC[C@@H]4[C@H]3CC[C@@]21CC 0 (no)

# lookup: test call for O=C(O)[C@H](O)[C@@H](O)[C@H](O[C@@H]1O[C@H](CO)[C@H](O)[C@H](O)[C@H]1O)[C@H](O)CO 0 (no)

# lookup: test call for CCN(CC)C(=O)c1cc(S(=O)(=O)Cc2ccccc2)c(N2CCC(c3ccccc3)CC2)cc1N(CC)CCN(C)C 1 (yes)

# lookup: test call for Fc1ccc(C(c2ccc(F)cc2)N2CCNCC2)cc1 0 (no)

---

procedure summary: qHTS assay for small molecule agonists of the antioxidant response element (ARE) signaling pathway - cell viability counter screen (AID 743203); further: nearly all actives have a fitted effect of over 55% in size; further: potency means the concentration at half of the fitted maximal effect
condition description: ARE-bla HepG2 viability, CellTiter-Glo luminescence, 16 h; series mostly up to 73.3 µM
Description: National Center for Advancing Translational Sciences [NCATS] NIH Chemical Genomics Center [NCGC] U.S. Environmental Protection Agency [EPA] National Institutes of Environmental Health Sciences [NIEHS] National Toxicology Program [NTP] U.S. Food and Drug Administration [FDA] Oxidative stress has been implicated in the pathogenesis of a variety of diseases ranging from cancer to neurodegeneration. […] The activation of the report gene under culture conditions can be detected by fluorescence intensity. […]
Inconclusive results are not listed. Active and inactive are the calls of the source. Calls come from the whole dose curve.
assay endpoint: Potency

Nc1nc(N)nc(-c2cc(Cl)ccc2Cl)n1 | inactive
C=Cc1ccccc1C=C | inactive
CC(C)(C)c1ccc(C(O)CCCN2CCC(C(O)(c3ccccc3)c3ccccc3)CC2)cc1 (stereo not drawn) | 11.9 µM (active)
CC(CCc1ccccc1)NCC(O)c1ccc(O)c(C(N)=O)c1 (stereo not drawn) | inactive
COC(=O)c1ccccc1C | inactive
Cc1cc(C(C#N)c2ccc(Cl)cc2)c(Cl)cc1NC(=O)c1cc(I)cc(I)c1O (stereo not drawn) | 33.5 µM (active)

Here is the next item to consider.
Return Potency (reported value) for this compound: Cc1cc(C(C)(C)C)cc(C)c1CC1=NCCN1 inactive
